Could you please report measured hERG current change (%, negative = inhibition) at 10uM for the items listed next?
target-of-assay: human ether-à-go-go-related gene (hERG) potassium channel (human);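 note: peak tail current of the secondary pulse compared with the same well before compound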
assay-info: primary screen, population patch clamp on CHO cells stably expressing hERG; higher = less effect of the substance
Among all 310,000 compounds or so, about 14,000 (4.5%) showed an effect of 50% or more. The effect is printed as a negative number. The full list was thinned out, with strong results kept by preference.
# do not omit the unit; it follows the number

# input State hERG current change (%, negative = inhibition) at 10uM (human ether-à-go-go-related gene (hERG) potassium channel (human)) of `CN1C(=O)C(C)(C)c2cc(S(=O)(=O)N3CCN(c4ccccc4F)CC3)ccc21` .
# output -3.03%

# input State hERG current change (%, negative = inhibition) at 10uM (human ether-à-go-go-related gene (hERG) potassium channel (human)) of `Cc1ccc(OCCn2ccnc2)c([N+](=O)[O-])c1` .
# output -4.29%

# input State hERG current change (%, negative = inhibition) at 10uM (human ether-à-go-go-related gene (hERG) potassium channel (human)) of `CC(=O)Oc1ccc2oc(C)c(C(=O)N3CCOCC3)c2c1` .
# output -8.91%

# input State hERG current change (%, negative = inhibition) at 10uM (human ether-à-go-go-related gene (hERG) potassium channel (human)) of `Cc1ccc(OCCCCn2ccnc2)c([N+](=O)[O-])c1` .
# output -51.5%

====

target-of-assay: human ether-à-go-go-related gene (hERG) potassium channel (human, UniProt Q12809);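 note: peak tail current of the secondary pulse compared with the same well before compound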
Sequence (Q12809 whole entry, looked up): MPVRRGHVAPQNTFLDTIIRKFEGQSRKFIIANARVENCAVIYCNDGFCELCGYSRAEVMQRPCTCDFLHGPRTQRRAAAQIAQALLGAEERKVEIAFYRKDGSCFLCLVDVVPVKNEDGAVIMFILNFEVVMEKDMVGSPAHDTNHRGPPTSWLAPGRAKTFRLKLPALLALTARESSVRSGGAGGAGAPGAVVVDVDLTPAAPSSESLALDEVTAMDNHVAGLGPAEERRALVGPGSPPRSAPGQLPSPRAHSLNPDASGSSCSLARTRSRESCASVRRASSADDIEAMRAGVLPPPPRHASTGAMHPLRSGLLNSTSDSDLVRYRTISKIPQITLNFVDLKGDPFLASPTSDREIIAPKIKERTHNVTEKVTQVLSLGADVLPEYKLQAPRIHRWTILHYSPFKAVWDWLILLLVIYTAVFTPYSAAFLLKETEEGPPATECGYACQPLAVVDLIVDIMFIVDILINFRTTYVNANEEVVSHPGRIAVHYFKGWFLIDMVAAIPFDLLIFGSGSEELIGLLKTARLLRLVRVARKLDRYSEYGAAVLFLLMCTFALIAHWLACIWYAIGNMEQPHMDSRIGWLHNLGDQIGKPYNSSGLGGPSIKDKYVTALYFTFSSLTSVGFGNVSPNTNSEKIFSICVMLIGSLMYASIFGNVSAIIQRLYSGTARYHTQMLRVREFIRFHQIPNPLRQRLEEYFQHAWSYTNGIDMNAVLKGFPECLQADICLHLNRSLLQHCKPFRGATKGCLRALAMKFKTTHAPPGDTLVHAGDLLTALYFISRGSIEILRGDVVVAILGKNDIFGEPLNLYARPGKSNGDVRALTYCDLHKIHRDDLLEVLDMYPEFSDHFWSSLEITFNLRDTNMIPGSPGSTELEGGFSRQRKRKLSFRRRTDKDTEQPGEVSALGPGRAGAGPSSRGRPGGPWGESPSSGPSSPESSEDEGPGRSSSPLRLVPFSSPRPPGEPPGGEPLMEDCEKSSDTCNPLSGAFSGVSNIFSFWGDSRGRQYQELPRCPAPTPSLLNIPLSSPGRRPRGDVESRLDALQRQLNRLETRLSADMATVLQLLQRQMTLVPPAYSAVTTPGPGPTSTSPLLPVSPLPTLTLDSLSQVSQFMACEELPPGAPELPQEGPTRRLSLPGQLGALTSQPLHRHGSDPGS
assay-info: primary screen, population patch clamp on CHO cells stably expressing hERG; higher = less effect of the substance
About 14,000 (4.5%) of roughly 310,000 compounds showed an effect of 50% or more. The effect is printed as a negative number. Shown is part of a subset that was picked to be rich in strong results.
property-measured: hERG current change (%, negative = inhibition) at 10uM (%)
Kindly provide the numeric value in % only, without the unit symbol.

# input Provide only the value of recorded hERG current change (%, negative = inhibition) at 10uM for `O=S(=O)(Nc1ccc(-c2ccc3nncn3n2)cc1)c1cccc(F)c1`
# output 18.1

# input Provide only the value of recorded hERG current change (%, negative = inhibition) at 10uM for `CCOC(=O)N1CCN(C(=O)c2cc3c(-c4cccc(OC)c4)nn(C)c3s2)CC1`
# output -35.6

# input Provide only the value of recorded hERG current change (%, negative = inhibition) at 10uM for `Cc1c(-c2ccc(/C=N/NC(=O)C(=O)Nc3ccccc3F)o2)cccc1[N+](=O)[O-]`
# output 21.1

# input Provide only the value of recorded hERG current change (%, negative = inhibition) at 10uM for COc1ccc(S(=O)(=O)NC(CC(=O)N2CCC3(CC2)OCCO3)C(C)C)cc1 (stereo not drawn)
# output 10.9

# input Provide only the value of recorded hERG current change (%, negative = inhibition) at 10uM for `Cc1ccc(S(=O)(=O)Nc2ccc(-n3c(C)nc4ccccc4c3=O)cc2)cc1`
# output -49.4

# input Provide only the value of recorded hERG current change (%, negative = inhibition) at 10uM for `Cc1nc2sc3c(c2c(=O)[nH]1)CCC3`
# output 12.1

# input Provide only the value of recorded hERG current change (%, negative = inhibition) at 10uM for `Cc1cccc(S(=O)(=O)Nc2ccc(-n3c(C)nc4ccccc4c3=O)cc2)c1`
# output -55.9

# input Provide only the value of recorded hERG current change (%, negative = inhibition) at 10uM for COc1ccc(/C=C/C(=O)NC(=S)NN2CCCCC2c2cccnc2)cc1OC (stereo not drawn)
# output 3.25

# input Provide only the value of recorded hERG current change (%, negative = inhibition) at 10uM for CC(=O)C1=C(O)C(=O)N(c2ccc(S(=O)(=O)Nc3nccs3)cc2)C1c1ccc([N+](=O)[O-])cc1 (stereo not drawn)
# output 10.6

# input Provide only the value of recorded hERG current change (%, negative = inhibition) at 10uM for CC(C)=CCCC(C)N(C=O)C(C)CCC=C(C)C (stereo not drawn)
# output -1.01

# input Provide only the value of recorded hERG current change (%, negative = inhibition) at 10uM for `S=C1NC(c2ccccc2)=NCN1c1ccc(Br)cc1`
# output -12.9

# input Provide only the value of recorded hERG current change (%, negative = inhibition) at 10uM for CCOC(=O)C1CCCN(C(=O)c2cc(-c3ccccc3)nc3ccccc23)C1 (stereo not drawn)
# output -9.9
